The measurements presented in this section are drawn from paper PMC6308302.

The reader will find reported Tmax values listed item by item below.
assayText: Multiple component PK study in rat plasma after p.o. GDDP (HPLC-MS)
conditionNotes: Sprague-Dawley, rat, plasma, po, 0.8 g/kg
Report the figure in min without appending any unit label.

Some compounds with recorded Tmax:
[
  {
    "compound": "Cc1coc2c1C(=O)C(=O)c1c-2ccc2c(C)cccc12 [TS I, tanshinone I]",
    "Tmax, min": 75
  },
  {
    "compound": "CC(C)=CCC[C@](C)(O[C@@H]1O[C@H](CO[C@@H]2O[C@H](CO)[C@@H](O)[C@H](O)[C@H]2O)[C@@H](O)[C@H](O)[C@H]1O)[C@H]1CC[C@]2(C)[C@@H]1[C@H](O)C[C@@H]1[C@@]3(C)CC[C@H](O[C@@H]4O[C@H](CO)[C@@H](O)[C@H](O)[C@H]4O[C@@H]4O[C@H](CO)[C@@H](O)[C@H](O)[C@H]4O)C(C)(C)[C@@H]3CC[C@]12C [Rb1, ginsenoside Rb1]",
    "Tmax, min": 200
  },
  {
    "compound": "C[C@H]1COC2=C1C(=O)C(=O)c1c2ccc2c1CCCC2(C)C [CTS, cryptotanshinone]",
    "Tmax, min": 15
  },
  {
    "compound": "Cc1coc2c1C(=O)C(=O)c1c-2ccc2c1CCCC2(C)C [TS IIA, tanshinone (TS) IIA]",
    "Tmax, min": 19.8
  }
]

Entry under test: CC(C)=CCC[C@](C)(O[C@@H]1O[C@H](CO)[C@@H](O)[C@H](O)[C@H]1O)[C@H]1CC[C@]2(C)[C@@H]1[C@H](O)C[C@@H]1[C@@]3(C)CC[C@H](O)C(C)(C)[C@@H]3[C@@H](O[C@@H]3O[C@H](CO)[C@@H](O)[C@H](O)[C@H]3O[C@@H]3OC[C@@H](O)[C@H](O)[C@H]3O)C[C@]12C [R1, notoginsenoside R1] . Its Tmax was 45
